# Test system: velvetleaf (Abutilon theophrasti)
# TEST DETAILS: Test B pre-/postemergence plant response
# Type: in vivo
# MEASUREMENT CONTEXT: Postemergence, 31 g ai/ha; 0 to 100 scale (0 no effect, 100 complete control)
Labelling: Plant response rating, Velvetleaf reported below 80 becomes 1.0; at or above becomes 0.0.

// known answers, use as guide
COMPOUND	ASSIGNED LABEL
CCCn1c(-c2cc(C)cc(C)c2)ncc(C(=O)C2=C(O)CCCC2=O)c1=O	1.0
O=C(C1=C(O)C2CCC(C2)C1=O)c1cnc(-c2ccsc2)n(CC2CCCO2)c1=O (stereo not drawn)	1.0
CCCn1c(-c2cc(F)cc(F)c2)ncc(C(=O)C2=C(O)CCCC2=O)c1=O	0.0
Cc1ccccc1-n1c(-c2cc(F)cc(F)c2)ncc(C(=O)C2=C(O)CCCC2=O)c1=O	0.0

Turning now to a further record.
Ask: Input `O=C1CCCC(O)=C1C(=O)c1cnc(-c2cc(F)cc(F)c2)n(C2CCCCC2)c1=O` ; condition: Plant response rating, Velvetleaf strictly below 80. Does it hold?
Reply: 0.0

----------
# Test system: green foxtail (Setaria viridis)
# TEST DETAILS: Test B pre-/postemergence plant response
# Format: in vivo
# MEASUREMENT CONTEXT: Postemergence, 250 g ai/ha; scale 0 to 100 (0 no effect, 100 complete control)
RECORDED METRIC: Plant response rating, Foxtail, Green
Please reply with the value in numeric form only.

Below are worked cases with known answers.
SMI	RECORDED METRIC	RECORDED RESULT
CCCn1c(-c2ccc(F)cc2)ncc(C(=O)C2=C(O)CCCC2=O)c1=O	Plant response rating, Foxtail, Green	95
Cc1ccc(-c2ncc(C(=O)C3=C(O)CCCC3=O)c(=O)n2-c2ccccc2)cc1	Plant response rating, Foxtail, Green	98
CCCc1ncc(C(=O)C2=C(O)CCCC2=O)c(=O)n1-c1ccccc1C	Plant response rating, Foxtail, Green	95
O=C1CCCC(O)=C1C(=O)c1cnc(-c2ccsc2)n(-c2ccccc2)c1=O	Plant response rating, Foxtail, Green	100
COCCn1c(-c2cccc(C)c2)ncc(C(=O)C2=C(O)CCCC2=O)c1=O	Plant response rating, Foxtail, Green	95
CCCCn1c(-c2cc(F)cc(F)c2)ncc(C(=O)C2=C(O)CCCC2=O)c1=O	Plant response rating, Foxtail, Green	100
O=C1CCCC(O)=C1C(=O)c1cnc(-c2cccc(Cl)c2)n(-c2ccc(Cl)cc2)c1=O	Plant response rating, Foxtail, Green	100
CCCn1c(-c2cccs2)ncc(C(=O)C2=C(O)CCCC2=O)c1=O	Plant response rating, Foxtail, Green	80

Could you now look at the following compound, please?
Ask: Return value of Plant response rating, Foxtail, Green for input `COCCCn1c(-c2cccc(C)c2)ncc(C(=O)C2=C(O)CCCC2=O)c1=O` , no commentary.
Reply: 95

----------
# Tested on: corn (Zea mays)
# TEST DETAILS: Test B pre-/postemergence plant response
# Format: in vivo
# MEASUREMENT CONTEXT: Postemergence, 125 g ai/ha; visual rating after 13 to 15 days, scale 0 (no effect) to 100 (complete control)
RECORDED METRIC: Plant response rating, Corn
Please reply with the value in numeric form only.

Ask: Write down measured Plant response rating, Corn (corn (Zea mays)) for this molecule. O=C1CCCC(O)=C1C(=O)c1cnc(-c2ccccc2Br)n(-c2ccccc2)c1=O [Compound 71]
Reply: 0

Ask: Write down measured Plant response rating, Corn (corn (Zea mays)) for this molecule. Cc1c(Cl)cccc1-n1c(-c2ccccc2)ncc(C(=O)C2=C(O)CCCC2=O)c1=O [Compound 40]
Reply: 85

Ask: Write down measured Plant response rating, Corn (corn (Zea mays)) for this molecule. Cc1ccccc1-c1ncc(C(=O)C2=C(O)CCCC2=O)c(=O)n1-c1ccccc1 [Compound 82]
Reply: 5

Ask: Write down measured Plant response rating, Corn (corn (Zea mays)) for this molecule. Cn1c(-c2ccccc2)ncc(C(=O)C2=C(O)CCCC2=O)c1=O [Compound 55]
Reply: 5

Ask: Write down measured Plant response rating, Corn (corn (Zea mays)) for this molecule. Cc1ccccc1-n1c(-c2cccc(Cl)c2)ncc(C(=O)C2=C(O)CCCC2=O)c1=O [Compound 36]
Reply: 65

Ask: Write down measured Plant response rating, Corn (corn (Zea mays)) for this molecule. Cc1ccc(F)cc1-n1c(-c2ccccc2)ncc(C(=O)C2=C(O)CCCC2=O)c1=O [Compound 44]
Reply: 80

Ask: Write down measured Plant response rating, Corn (corn (Zea mays)) for this molecule. O=C1CCCC(O)=C1C(=O)c1cnc(-c2ccsc2)n(-c2ccccc2)c1=O [Compound 56]
Reply: 65

Ask: Write down measured Plant response rating, Corn (corn (Zea mays)) for this molecule. Cc1cccc(Cl)c1-n1c(-c2ccccc2)ncc(C(=O)C2=C(O)CCCC2=O)c1=O [Compound 46]
Reply: 60

Ask: Write down measured Plant response rating, Corn (corn (Zea mays)) for this molecule. Cc1ccc(-c2ncc(C(=O)C3=C(O)CCCC3=O)c(=O)n2-c2ccccc2)cc1 [Compound 80]
Reply: 65

----------
# Tested on: ragweed (common ragweed, Ambrosia elatior)
# TEST DETAILS: Test B pre-/postemergence plant response
# Format: in vivo
# MEASUREMENT CONTEXT: 250 g ai/ha, Preemergence, 0 to 100 scale
RECORDED METRIC: Plant response rating, Ragweed
Please reply with the value in numeric form only.

SMI	Plant response rating, Ragweed
Cc1c(Cl)cccc1-n1c(-c2ccccc2)ncc(C(=O)C2=C(O)CCCC2=O)c1=O	95
Cc1ccccc1-n1c(-c2ccccc2)ncc(C(=O)C2=C(O)CCCC2=O)c1=O	100
CCCCc1ncc(C(=O)C2=C(O)CCCC2=O)c(=O)n1-c1ccccc1	80

Could you now look at the following compound, please?
Ask: Return value of Plant response rating, Ragweed for input `Cc1cc(C)cc(-n2c(-c3ccccc3)ncc(C(=O)C3=C(O)CCCC3=O)c2=O)c1` , no commentary.
Reply: 100

----------
# System: Italian ryegrass (Lolium multiflorum)
# TEST DETAILS: Test B pre-/postemergence plant response
# Assay type: in vivo
# MEASUREMENT CONTEXT: Preemergence, 125 g ai/ha; scale 0 to 100, 0 no effect, 100 complete control
RECORDED METRIC: Plant response rating, Ryegrass, Italian
Please reply with the value in numeric form only.

SMI	Plant response rating, Ryegrass, Italian
CCCn1c(-c2cccs2)ncc(C(=O)C2=C(O)CCCC2=O)c1=O	0
CCCCc1ncc(C(=O)C2=C(O)CCCC2=O)c(=O)n1-c1ccc(C)cc1	0
O=C1CCCC(O)=C1C(=O)c1cnc(-c2cccc(Cl)c2)n(-c2ccc(Cl)cc2)c1=O	0
CCCc1ncc(C(=O)C2=C(O)CCCC2=O)c(=O)n1-c1ccccc1C	0
COCCCn1c(-c2cc(F)cc(F)c2)ncc(C(=O)C2=C(O)CCCC2=O)c1=O	100

Could you now look at the following molecule, please?
Ask: Return value of Plant response rating, Ryegrass, Italian for input `COCCn1c(-c2cc(F)cc(F)c2)ncc(C(=O)C2=C(O)CCCC2=O)c1=O` , no commentary.
Reply: 100

----------
// reported Plant response rating, Pigweed per item
# Test system: pigweed (Amaranthus retroflexus)
# TEST DETAILS: Test B pre-/postemergence plant response
# Format: in vivo
# MEASUREMENT CONTEXT: Preemergence, 31 g ai/ha; scale 0 to 100 (0 no effect, 100 complete control)
Please reply with the value in numeric form only.

Below are worked cases with known answers.
COMPOUND	ASSAYED SYSTEM	RECORDED RESULT
Cc1ccccc1-n1c(-c2cccc(Cl)c2)ncc(C(=O)C2=C(O)CCCC2=O)c1=O [Compound 36]	pigweed (Amaranthus retroflexus)	100
O=C1CCCC(O)=C1C(=O)c1cnc(-c2ccccc2)n(-c2cccc(Br)c2)c1=O [Compound 38]	pigweed (Amaranthus retroflexus)	100
CCc1ccccc1-n1c(-c2ccccc2)ncc(C(=O)C2=C(O)CCCC2=O)c1=O [Compound 255]	pigweed (Amaranthus retroflexus)	100

Ask: Return value of Plant response rating, Pigweed for input COCCn1c(-c2cc(F)cc(F)c2)ncc(C(=O)C2=C(O)CCCC2=O)c1=O [Compound 119] , no commentary.
Reply: 80

Ask: Return value of Plant response rating, Pigweed for input Cc1ccc(F)cc1-n1c(-c2ccccc2)ncc(C(=O)C2=C(O)CCCC2=O)c1=O [Compound 44] , no commentary.
Reply: 98

Ask: Return value of Plant response rating, Pigweed for input CCCCn1c(-c2cc(F)cc(F)c2)ncc(C(=O)C2=C(O)C3CCC(C3)C2=O)c1=O (stereo not shown) [Compound 245] , no commentary.
Reply: 80

Ask: Return value of Plant response rating, Pigweed for input CCCn1c(-c2cccs2)ncc(C(=O)C2=C(O)CCCC2=O)c1=O [Compound 77] , no commentary.
Reply: 100

----------
// reported Plant response rating, Pigweed per item
# System: pigweed (Amaranthus retroflexus)
# TEST DETAILS: Test A pre-/postemergence plant response
# Assay type: in vivo
# MEASUREMENT CONTEXT: Preemergence, 125 g ai/ha; 0 to 100 scale, 0 = no effect, 100 = complete control
Please reply with the value in numeric form only.

Below are worked cases with known answers.
COMPOUND	Plant response rating, Pigweed
O=C1CCCC(O)=C1C(=O)c1cnc(-c2ccccc2)n(CC2CCCO2)c1=O (centres unmarked)	90
CCCn1c(-c2cccc(C(F)(F)F)c2)ncc(C(=O)C2=C(O)CCCC2=O)c1=O	90
Cc1ccc(-n2c(-c3ccccc3)ncc(C(=O)C3=C(O)CCCC3=O)c2=O)cc1	90
Cc1ccc(F)cc1-n1c(-c2cccc(Cl)c2)ncc(C(=O)C2=C(O)CCCC2=O)c1=O	0
CCn1c(Cc2ccccc2)ncc(C(=O)C2=C(O)CCCC2=O)c1=O	0

Ask: Return value of Plant response rating, Pigweed for input `O=C1CCCC(O)=C1C(=O)c1cnc(-c2cccc(F)c2)n(-c2ccccc2)c1=O` , no commentary.
Reply: 80

Ask: Return value of Plant response rating, Pigweed for input `COCCCn1c(-c2cccc(Br)c2)ncc(C(=O)C2=C(O)CCCC2=O)c1=O` , no commentary.
Reply: 80

Ask: Return value of Plant response rating, Pigweed for input `COCCn1c(-c2cccc(C)c2)ncc(C(=O)C2=C(O)CCCC2=O)c1=O` , no commentary.
Reply: 90

Hey, just so you know, these numbers are from patent US8952024B2.
